Each item that follows carries a reported IC50.
Tested on: BaF3
Experiment: Antiproliferative activity against wild type mouse BaF3 cells assessed as reduction in cell growth incubated for 2 to 3 days by Bright-Glo luciferase assay
Quick reminder: number only, in µM, skip the unit.

See these solved cases before continuing.
* Cc1cc2c(Nc3ccccc3S(=O)(=O)C(C)C)nc(Nc3cc(C)c(C4CCNCC4)cc3OC(C)C)nc2[nH]1 | 5.41
* Cc1cc(NC2=NC3NCCCC3C(Nc3ccccc3S(=O)(=O)C(C)C)=N2)c(OC(C)C)cc1C1CCNCC1 (stereo not drawn) | 2.03
* Cc1cc(Nc2nc(Nc3ccccc3S(=O)(=O)C(C)C)c3c(C)n[nH]c3n2)c(OC(C)C)cc1C1CCNCC1 | 5.54
* COc1ccc2nc(Nc3cc(C)c(C4CCN(C)CC4)cc3OC(C)C)nc(Nc3ccccc3S(=O)(=O)C(C)C)c2c1 | 3.94
* Cc1cc(Nc2nc(Nc3ccccc3S(=O)(=O)C(C)C)c3cn[nH]c3n2)c(OC(C)C)cc1C1CCNCC1 | 6.22
* Cc1cc(Nc2nc(Nc3ccccc3S(=O)(=O)C(C)C)c3ccccc3n2)c(OC(C)C)cc1C1CCN(C)CC1 | 3.24
* Cc1cc(Nc2cc(Nc3ccccc3S(=O)(=O)C(C)C)c3cc[nH]c3n2)c(OC(C)C)cc1C1CCN(C)CC1 | 4.91

Reported IC50 of Cc1cc2c(Nc3ccccc3S(=O)(=O)C(C)C)nc(Nc3cc(C)c(C4CCN(C)CC4)cc3OC(C)C)nc2[nH]1 : 5.73
